assay explanation: Influencing factor stability (open flasks, light, high temperature, high humidity, 30 days)
settings: Light exposure (4500 Lux), 10 days, open flask
quantity measured: Salt form

[[record]]
molecule = "CCO[C@H]1C[C@H]2CC[C@@](c3ccc(C(=O)O)cc3)(C1)N2Cc1c(OC)cc(C)c2[nH]ccc12.Cl [crystal form II of the hydrochloride]"
result = "No change"

[[record]]
molecule = "CCO[C@H]1C[C@H]2CC[C@@](c3ccc(C(=O)O)cc3)(C1)N2Cc1c(OC)cc(C)c2[nH]ccc12.Cl [crystal form III of the hydrochloride]"
result = "No change"

[[record]]
molecule = "CCO[C@H]1C[C@H]2CC[C@@](c3ccc(C(=O)O)cc3)(C1)N2Cc1c(OC)cc(C)c2[nH]ccc12.O=C(O)/C=C/C(=O)O [crystal form I of the fumarate]"
result = "No change"

[[record]]
molecule = "CCO[C@H]1C[C@H]2CC[C@@](c3ccc(C(=O)O)cc3)(C1)N2Cc1c(OC)cc(C)c2[nH]ccc12.Cc1ccc(S(=O)(=O)O)cc1 [crystal form I of the p-toluenesulfonate]"
result = "No change"


###

assay explanation: Influencing factor stability (open flasks, light, high temperature, high humidity, 30 days)
settings: 60° C., 30 days, open flask
quantity measured: Salt form

Some entries whose results are on file:
[[record]]
molecule = "CCO[C@H]1C[C@H]2CC[C@@](c3ccc(C(=O)O)cc3)(C1)N2Cc1c(OC)cc(C)c2[nH]ccc12.O=P(O)(O)O [crystal form II of the phosphate]"
quantity_measured = "Salt form"
result = "No change"

[[record]]
molecule = "CCO[C@H]1C[C@H]2CC[C@@](c3ccc(C(=O)O)cc3)(C1)N2Cc1c(OC)cc(C)c2[nH]ccc12.Cl [crystal form II of the hydrochloride]"
quantity_measured = "Salt form"
result = "No change"

[[record]]
molecule = "CCO[C@H]1C[C@H]2CC[C@@](c3ccc(C(=O)O)cc3)(C1)N2Cc1c(OC)cc(C)c2[nH]ccc12.O=C(O)/C=C/C(=O)O [crystal form I of the fumarate]"
quantity_measured = "Salt form"
result = "No change"

[[record]]
molecule = "CCO[C@H]1C[C@H]2CC[C@@](c3ccc(C(=O)O)cc3)(C1)N2Cc1c(OC)cc(C)c2[nH]ccc12.Cc1ccc(S(=O)(=O)O)cc1 [crystal form I of the p-toluenesulfonate]"
quantity_measured = "Salt form"
result = "No change"


Proceed to the following item.
Ask: Consider the molecule shown here: CCO[C@H]1C[C@H]2CC[C@@](c3ccc(C(=O)O)cc3)(C1)N2Cc1c(OC)cc(C)c2[nH]ccc12.Cl [crystal form III of the hydrochloride] What is its recorded Salt form?
Reply: No change

###

assay explanation: Influencing factor stability (open flasks, light, high temperature, high humidity, 30 days)
settings: 40° C., 10 days, open flask
quantity measured: Salt form

[[record]]
molecule = "CCO[C@H]1C[C@H]2CC[C@@](c3ccc(C(=O)O)cc3)(C1)N2Cc1c(OC)cc(C)c2[nH]ccc12.Cc1ccc(S(=O)(=O)O)cc1 [crystal form I of the p-toluenesulfonate]"
result = "No change"

[[record]]
molecule = "CCO[C@H]1C[C@H]2CC[C@@](c3ccc(C(=O)O)cc3)(C1)N2Cc1c(OC)cc(C)c2[nH]ccc12.O=C(O)/C=C/C(=O)O [crystal form I of the fumarate]"
result = "No change"

[[record]]
molecule = "CCO[C@H]1C[C@H]2CC[C@@](c3ccc(C(=O)O)cc3)(C1)N2Cc1c(OC)cc(C)c2[nH]ccc12.Cl [crystal form II of the hydrochloride]"
result = "No change"

[[record]]
molecule = "CCO[C@H]1C[C@H]2CC[C@@](c3ccc(C(=O)O)cc3)(C1)N2Cc1c(OC)cc(C)c2[nH]ccc12.Cl [crystal form III of the hydrochloride]"
result = "No change"


###

assay explanation: Influencing factor stability (open flasks, light, high temperature, high humidity, 30 days)
settings: 60° C., 30 days, open flask
Some compounds, each annotated with its measured Purity %.
# number only, unit % dropped from output

Some entries whose results are on file:
[[record]]
compound = "CCO[C@H]1C[C@H]2CC[C@@](c3ccc(C(=O)O)cc3)(C1)N2Cc1c(OC)cc(C)c2[nH]ccc12.Cl [crystal form II of the hydrochloride]"
quantity_measured = "Purity %"
unit_symbol = "%"
numeric_result = 97.4

[[record]]
compound = "CCO[C@H]1C[C@H]2CC[C@@](c3ccc(C(=O)O)cc3)(C1)N2Cc1c(OC)cc(C)c2[nH]ccc12.Cl [crystal form III of the hydrochloride]"
quantity_measured = "Purity %"
unit_symbol = "%"
numeric_result = 98.5

[[record]]
compound = "CCO[C@H]1C[C@H]2CC[C@@](c3ccc(C(=O)O)cc3)(C1)N2Cc1c(OC)cc(C)c2[nH]ccc12.O=C(O)/C=C/C(=O)O [crystal form I of the fumarate]"
quantity_measured = "Purity %"
unit_symbol = "%"
numeric_result = 99.5


Proceed to the following item.
Ask: Consider the compound shown here: CCO[C@H]1C[C@H]2CC[C@@](c3ccc(C(=O)O)cc3)(C1)N2Cc1c(OC)cc(C)c2[nH]ccc12.Cc1ccc(S(=O)(=O)O)cc1 [crystal form I of the p-toluenesulfonate] What is its recorded Purity %?
Reply: 99.7

###

assay explanation: Influencing factor stability (open flasks, light, high temperature, high humidity, 30 days)
settings: Light exposure (4500 Lux), 10 days, open flask
Some molecules, each annotated with its measured Purity %.
# number only, unit % dropped from output

[[record]]
molecule = "CCO[C@H]1C[C@H]2CC[C@@](c3ccc(C(=O)O)cc3)(C1)N2Cc1c(OC)cc(C)c2[nH]ccc12.Cc1ccc(S(=O)(=O)O)cc1 [crystal form I of the p-toluenesulfonate]"
unit_symbol = "%"
numeric_result = 99.9

[[record]]
molecule = "CCO[C@H]1C[C@H]2CC[C@@](c3ccc(C(=O)O)cc3)(C1)N2Cc1c(OC)cc(C)c2[nH]ccc12.Cl [crystal form II of the hydrochloride]"
unit_symbol = "%"
numeric_result = 99.2

[[record]]
molecule = "CCO[C@H]1C[C@H]2CC[C@@](c3ccc(C(=O)O)cc3)(C1)N2Cc1c(OC)cc(C)c2[nH]ccc12.O=C(O)/C=C/C(=O)O [crystal form I of the fumarate]"
unit_symbol = "%"
numeric_result = 99.9


Ask: Consider the molecule shown here: CCO[C@H]1C[C@H]2CC[C@@](c3ccc(C(=O)O)cc3)(C1)N2Cc1c(OC)cc(C)c2[nH]ccc12.Cl [crystal form III of the hydrochloride] What is its recorded Purity %?
Reply: 98.4
